Listed here: items and their measured melting point.
measuredQuantity: melting point

1. Cc1nc(C)c(Cc2cccs2)c(NCc2ccc(-c3ccccc3-c3nnn[nH]3)cc2)n1    262 to 263 °C
2. CCCCCCCCCC=CC(=O)C1C(=O)C=C(C)OC1=O (stereo unspecified)    112 to 113 °C
3. O=C1CNC(c2ccc(Cl)cc2)=NN1    > 260 °C
4. CN1C(=O)C2C3C=CC(C3)C2(c2ccc3c(c2)OCO3)C1=O (stereo unspecified)    116 to 118 °C
5. CCOC(=O)c1c[nH]c2cc(-c3cc(C)nc(C)c3)c(F)cc2c1=O    > 300 °C
6. N#C/C=C/C1CN(C(c2ccccc2)c2ccccc2)C1    108 to 110 °C
7. CCCn1nc2c(N)nc3ccccc3c2c1CCCCS(=O)(=O)NC    166 to 169 °C
8. CCN(CC)CCNc1cc(-c2c(-c3cccc(C)c3)nc3cccnn23)ccn1    97 to 98 °C
9. O=C1CN2CCC1(Cc1ccccc1)CC2    111 °C
10. CCc1cccc(C)c1NC(=O)C(C)N (stereo unspecified)    68.5 to 70 °C
11. CCCN(CCC)[C@H]1Cc2c[nH]c3ccc(-c4nc(-c5ccccc5)no4)c(c23)C1    154 to 155 °C

* * *

measuredQuantity: melting point

1. COc1ccc(CNC(=O)c2cc(C)ccc2N)cc1    144 to 145 °C
2. COC(=O)C(CCCBr)Oc1cc2c(cc1[N+](=O)[O-])CCC2 (stereo unspecified)    154 to 155 °C
3. COc1ccc(NC(C)=O)cc1OCCCN1CCC(c2nsc3cc(F)ccc23)CC1    109 to 111 °C
4. C1=C(c2coc3ccccc23)N2CCCN=C2S1    128 to 130 °C
5. CC(c1ccc2[nH]nc(S(=O)(=O)c3cccc4ccccc34)c2c1)N1CCN(C)CC1 (stereo unspecified)    183 to 185 °C
6. COc1nc(N)nc2c1CCO2    172 to 177 °C
7. N#Cc1ccc(Oc2cccc(Oc3ccc(C#N)c(C#N)c3)c2)cc1C#N    183 to 186 °C
8. Nc1c(F)c(N2CCCC(n3ccnn3)C2)c(F)c2c1c(=O)c(C(=O)O)cn2C1CC1 (stereo unspecified)    252 to 254 °C
9. O=C(NO)c1ccc(N2CCCC2)cn1    220 to 225 °C
10. CCC1=C(C(=O)O)C(C(F)(F)F)Oc2ccc(Cl)cc21 (stereo unspecified)    171 to 172 °C
11. Cc1ccc(C(=O)n2c(C)c(CC(=O)O)c3cc4c(cc32)OCCO4)cc1    162 to 163 °C
12. Nc1c(Br)cc(Br)cc1S(N)(=O)=O    165 to 169 °C
13. O=C(Nc1ccc2nc3[nH]c(=O)[nH]c3cc2c1)c1ccccc1    > 300 °C
14. N#Cc1c(N2CCCC2)c(F)cc2c(=O)c(C(=O)O)cn(C3CC3)c12    274 to 276 °C
15. COc1cc(C(=O)CC(=O)c2ccc(O)cc2O)cc(OC)c1OC    284 to 286 °C
16. CCN(CC)CCNCc1ccc(C(=O)Nc2nc(-c3ccccc3)c(-c3ccc(=O)n(C(C)C)n3)s2)cc1    158 to 160 °C
17. CC(C)(C)NS(=O)(=O)c1cc2c(s1)S(=O)(=O)NCC2=O    170 to 172 °C
18. CC(=O)N1CC(C)c2c1cc(C)c(O)c2C (stereo unspecified)    204 to 205 °C
19. CN(C[C@H](O)[C@@H](O)[C@H](O)[C@H](O)CO)C(=O)c1ccc2n1Cc1ccccc1N(C(=O)c1ccc(-c3cccc4ccccc34)nc1)C2    165 to 167 °C
20. COC(=O)Nc1ccc2ccccc2c1-c1c(P(c2ccccc2)c2ccccc2)ccc2ccccc12    92.1 °C
21. NC(=O)c1nccn1C1Sc2ccccc2C1=O (stereo unspecified)    180 °C
22. COc1ccc2ncc3ncn(-c4ccccc4Cl)c3c2c1    202 to 205 °C
23. O=C(O)c1ccc(Cl)cc1Cc1ccccc1    142 to 144 °C
24. COc1ccc(S(=O)(=O)C(CCCCc2ccccc2)CC(=O)NO)cc1OC (stereo unspecified)    157 to 159 °C
25. NNc1nnc(C=Cc2ccc([N+](=O)[O-])o2)s1    205 to 206 °C
26. O=C(O)c1ccc(OCc2ccccc2)cc1O    179 to 180 °C
27. C=CCNC(=O)N1CC(OCc2ccc(F)cc2)C1    97 to 99 °C
28. CN=C(NS(=O)(=O)N1CCC(F)(F)CC1)N1CC(c2ccccc2)C(c2ccc(Cl)cc2)=N1 (stereo unspecified)    158 to 160 °C
29. COc1cc2c(cc1N1CCN(CC3=CC4=CCSC4=C3)CC1)OCC2    186 to 190 °C
30. O=[N+]([O-])c1ccc2c(c1)OC(CO)CO2 (stereo unspecified)    132 to 135 °C
31. COc1ccc2c(n1)c(C=C[N+](=O)[O-])c1n2CCCO1    248 to 249 °C
32. O=c1c2cc3ccccc3cc2oc2cc(OCC3CS3)cc(O)c12 (stereo unspecified)    189 to 190 °C
33. CCCCC(CC)C(=O)Nc1ccc2c(/C=C/C(=O)O)cn(Cc3ccc(C(=O)NS(=O)(=O)c4ccccc4)cc3OC)c2c1 (stereo unspecified)    200 to 201 °C
34. C=C(N=[N+]=[N-])c1cn(COCCO)c(=O)[nH]c1=O    141 to 142 °C
35. O=C(Nc1cc(-c2ccc(-c3ccccc3)cc2)on1)c1c(Cl)cccc1Cl    256 to 259 °C
36. N#CC1=C(C2=CCNCC2)Nc2n[nH]cc2C1c1cccc2nonc12 (stereo unspecified)    180 °C
37. COc1ccc(CC2CCN(C(=O)C(=O)Nc3ccc4[nH]c(=O)oc4c3)CC2)cc1    193 to 197 °C
38. Nc1ccccc1Cn1cc(C(F)(F)F)ccc1=O    83.4 to 85.3 °C
39. Cc1cccc(Oc2cccc(NC(=O)c3ccn4c3CSC4c3cccnc3)c2)c1 (stereo unspecified)    149 °C
40. Cc1cc(C(=O)c2ccccc2C(F)(F)F)c(N)s1    136 to 137 °C
41. N=C1SCCN1c1ccc([N+](=O)[O-])cc1    166 °C

* * *

measuredQuantity: melting point

1. O=Cc1cccc(OCc2ccc3ccccc3c2)c1    105 to 106 °C
2. CCCCCS(=O)(=O)NC(=O)CCCCc1cc(OCCCC)nn1Cc1ccc(Cl)cc1Cl    91 to 93 °C
3. Cc1cccc(C(=O)NC(Nc2c(Nc3cccnc3)c(=O)c2=O)C(C)(C)Cc2ccncc2)c1 (centres undefined)    219 to 221 °C
4. O=C1NC2COc3cc4c(cc3C2c2ccsc21)OCO4 (centres undefined)    > 250 °C
5. C=Cc1cc(NC(=O)N2CCN(c3cc(OC)cc(OC)c3)CC2)c(OC)nc1C    140 to 141 °C
6. O=C1NCc2c1c1c(c3[nH]c4ccccc4c23)Cc2ccc(Br)cc2-1    > 340 °C
7. C[C@H]([C@](O)(Cn1cncn1)c1ccc(F)cc1F)S(=O)(=O)N1CCN(c2ccc(C(F)(F)F)cc2)CC1    158 to 159 °C
8. COC(=O)c1ccc(C(C)C(C)NCC(O)c2ccc(O)c(CO)c2)cc1 (centres undefined)    84.5 to 87 °C
9. CCCn1cc(C(=O)c2cccc3ccccc23)cc1C(=O)O    145 °C

* * *

measuredQuantity: melting point

1) O=C(OC1CCCCCCC1=O)c1ccccc1 (stereo unspecified)    92 to 93 °C
2) Cc1cccc(C)c1-n1cnc(NCc2ccccn2)nc1=O    165 to 166 °C
3) COCCNc1nc(C)nc2c1nnn2-c1ccc(C(C)C)cc1Br    134 to 136 °C
4) CCCCc1ccc(C(=O)NCc2c[nH]c(=S)n2[C@H]2CCc3c(F)cc(F)cc3C2)cc1    242 to 243 °C
5) COc1ccc([N+](=O)[O-])c2c1C(=O)CCC2    65 to 71 °C
6) Cc1nc2ccccn2c1C1=NNC(=O)CO1    278 to 280 °C

* * *

measuredQuantity: melting point

1. Cc1cccnc1C1CC(C)(C)Oc2ccc([N+](=O)[O-])cc21 (configuration not stated)    164 to 165 °C
2. C=CCOc1cc2c(cc1Br)CC[C@H]2CCNC(=O)CC    86 to 87 °C
3. COc1cccc2c(O)cnnc12    160 to 163 °C
4. C=CCN1CCCN(c2ccc(Cl)cc2C)C1=S    101 to 103 °C
5. COc1cccc(Oc2ccc([N+](=O)[O-])cc2C#N)c1    102 to 104 °C
6. CCc1c(CC(=O)NCCCCCC(=O)NCCc2ccc(NS(C)(=O)=O)cc2)ccc(OC)c1OC    110 to 112 °C
7. COc1ccn2nc(-c3ccccc3)c(-c3ccc(=O)n(C4CCN(C)CC4)n3)c2c1    154 to 155 °C
8. CC(=O)Nc1cc(Oc2ccc3c(C(=O)Nc4ccc(N5CCS(=O)(=O)CC5)c(C(F)(F)F)c4)cccc3c2)ncn1    280 to 287 °C
9. COc1cc2c(c3c1OC(C)(C)C3)C(c1cccc(Br)c1)=NCC2(C)C    127 to 129 °C
10. CCN1CCC(c2nc(-c3ccncc3)c(-c3ccc(F)cc3)[nH]2)CC1    242 to 244 °C
11. O=C(CCCC(=O)N1C(=O)OC[C@@H]1Cc1ccccc1)c1ccc(F)cc1    114 °C
12. CCCCC(=O)OCC(=O)C1C(C)CC2C3CC(Cl)C4=CC(=O)C=CC4(C)C3(Cl)C(O)CC21C (configuration not stated)    218 °C
13. N#Cc1cc(O)ccc1[N+](=O)[O-]    200 to 202 °C
14. CCCCCC(=O)OCC(=O)C1C(C)CC2C3=C(C(O)CC21C)C1(C)C=CC(=O)C=C1C(F)C3 (configuration not stated)    155 °C
15. OCc1nnc2n1-c1ccccc1C(c1ccccc1Cl)=NC2    196 to 197 °C
16. CCCCc1oc2ccccc2c1C(=O)Nc1ccc(-c2ccc(O)cc2)cc1    181 to 183 °C
17. CC(C)(C)OC(=O)Nc1cc(N2CCSCC2)c(I)cc1[N+](=O)[O-]    132 to 134 °C
18. Cc1ccc2nc(-c3ccccc3F)oc2n1    136 to 137 °C
19. CC(C#N)(c1ccc(F)cc1)c1ccc(N2NCC(=O)NC2=O)cc1Cl (configuration not stated)    122 °C
20. CC(=O)OC[C@@](O)(c1ccc(F)cc1F)[C@H](C)c1ccncn1    102 to 104 °C
21. CNc1nc(C)ccc1C(=O)OCC#N    154 to 157 °C
22. CSc1ncncc1C(c1ccccc1F)C(C)(C)C(=O)O (configuration not stated)    204 to 205 °C
23. O=C(O)c1cc([N+](=O)[O-])cs1    110 to 118 °C
24. O=c1[nH]c2ccc(F)cc2c(=O)n1CCCN1CC=C(c2ccc(Cl)cc2)CC1    192 to 193 °C
25. N#CCCCCc1csc(NC(=N)N)n1    104 to 105 °C
26. CCOc1cc(C(CC(=O)OC)N2C(=O)c3ccccc3C2=O)ccc1OC (configuration not stated)    86 to 87 °C
27. CN1CC(CN)Oc2c(-c3ccc(Cl)cc3Cl)cccc21 (configuration not stated)    90 °C
28. CC1(C)N(CC(N)=O)C(=O)CN1C(=O)CCl    214 to 216 °C
29. COc1ccc2c(c1)Cc1cc(CCC(C)=O)ccc1-2    100 to 101 °C
30. CN(C)c1sc2cc(OCc3ccccc3)ccc2c1C(=O)c1ccc(F)c(C(F)(F)F)c1    164 to 167 °C
31. CC(C)(C(=O)O)c1cc(C(F)(F)F)cc(C(F)(F)F)c1    106 to 107 °C
32. CC(C)C(C)CCC(C)C1CCC2C3CCC4CCCCC4(C)C3CCC12C (configuration not stated)    136 to 137 °C
33. CC(C)(C)OC(=O)c1ccc(CBr)cc1    53.4 °C
34. CC(=O)NCCC1CCc2ccc3nc(C)oc3c21 (configuration not stated)    93 to 95 °C
35. CN(CCCS(=O)CCCC(F)(F)C(F)(F)F)CCOc1ccc(C2=C(c3ccccc3)CCCc3ccccc32)cc1 (configuration not stated)    74 to 77 °C
36. CCN(CC)C(=O)n1cnc(S(=O)(=O)CC2CCCCO2)n1 (configuration not stated)    122 °C
37. CCCCCCC1C(=O)NC2(C(O)C3C=CCCC3)C(=O)OC12C (configuration not stated)    157 °C
38. CS(=O)(=O)NCCCNC(=O)c1cccc(-c2cccc3oc(Cc4cccc(C(F)(F)F)c4)cc23)c1    79 to 80 °C
39. O[C@H]1CC[C@H](Nc2nccc(-c3n[nH]c4c(C(F)(F)F)cccc34)n2)CC1    266 to 270 °C
40. O=C(OCc1cc(-c2ccccc2)c(=O)n2c1-c1sccc1CN2)N1CCOCC1    207 to 210 °C
41. CC(c1ccc(COCc2ccccc2)o1)N(O)C(N)=O (configuration not stated)    121 °C
42. OC(c1ccccc1)(c1ccccc1)C(F)(F)C(F)(F)F    82 to 83 °C
